A collection of compounds and their measured pEC50
# Test system: HBV viral production from HepAD38 cells
# Assay summary: Activity of test compounds on viral production from HepAD38 cells (viral load by qPCR of HBV core sequence in supernatant)
# Assay type: cell-based
# Conditions: Hepatitis B virus, 120 h, 5 days incubation, HBV DNA in supernatant by qPCR, top concentration 10 μM, read-out: Viral Load EC50 Activity range
pEC50: −log10 of the molar value.

Compound: CN1[C@H](C(=O)Nc2ccc(F)c(Cl)c2)C[C@H](c2ccc(-c3cnn(C(F)(F)F)c3)s2)NS1(=O)=O [HBV-CSU-321-ISO-I]
pEC50: > 6.00

Reported pEC50 of [2H]C1[C@]([2H])(C(=O)Nc2ccc(F)c(Cl)c2)N(C)S(=O)(=O)N[C@]1([2H])c1ccc(-c2cn(C)cn2)s1 (stereo in doubt) [HBV-CSU-375-ISO-II] : 5.30 to 6.00

Reported pEC50 of CN1[C@H](C(=O)Nc2ccc(F)c(Cl)c2)C[C@H](c2cccc(F)c2)NS1(=O)=O (relative stereo) [HBV-CSU-231-ISO-I] : > 6.00

Reported pEC50 of Cc1c(-c2ccc(C3CC(C(=O)Nc4ccc(F)c(Cl)c4)N(C)S(=O)(=O)N3)s2)cnn1C (racemic) [HBV-CSU-312] : > 6.00
